- Assay conditions: in toluene, 313.15 K
Reported property: solubility (mole fraction)
Just the number, please, no unit attached.

Exam item: Look up and state reported solubility (mole fraction) for COc1ccc(CN2CCNCC2)c(OC)c1OC.Cl.Cl
Marked response: 2.12e-06

====

- Assay conditions: in 1,4-dioxane, 323.15 K
Reported property: solubility (mole fraction)
Just the number, please, no unit attached.

Exam item: Look up and state reported solubility (mole fraction) for COc1ccc(CN2CCNCC2)c(OC)c1OC.Cl.Cl
Marked response: 0.000141

====

- Assay conditions: in n-butanol, 293.15 K
Reported property: solubility (mole fraction)
Just the number, please, no unit attached.

Exam item: Look up and state reported solubility (mole fraction) for COc1ccc(CN2CCNCC2)c(OC)c1OC.Cl.Cl
Marked response: 0.000201

====

- Assay conditions: in ethyl acetate, 313.15 K
Reported property: solubility (mole fraction)

Exam item: Look up and state reported solubility (mole fraction) for COc1ccc(CN2CCNCC2)c(OC)c1OC.Cl.Cl
Marked response: 0.00264

====

- Assay conditions: in acetonitrile, 303.15 K
Reported property: solubility (mole fraction)
Just the number, please, no unit attached.

Exam item: Look up and state reported solubility (mole fraction) for COc1ccc(CN2CCNCC2)c(OC)c1OC.Cl.Cl
Marked response: 1.9e-05

====

- Assay conditions: in isopropanol, 303.15 K
Reported property: solubility (mole fraction)
Just the number, please, no unit attached.

Exam item: Look up and state reported solubility (mole fraction) for COc1ccc(CN2CCNCC2)c(OC)c1OC.Cl.Cl
Marked response: 0.000184

====

- Assay conditions: in acetone, 318.15 K
Reported property: solubility (mole fraction)

Exam item: Look up and state reported solubility (mole fraction) for COc1ccc(CN2CCNCC2)c(OC)c1OC.Cl.Cl
Marked response: 1.2e-05

====

- Assay conditions: in isopropanol, 278.15 K
Reported property: solubility (mole fraction)
Just the number, please, no unit attached.

Exam item: Look up and state reported solubility (mole fraction) for COc1ccc(CN2CCNCC2)c(OC)c1OC.Cl.Cl
Marked response: 7.61e-05

====

- Assay conditions: in DMF, 278.15 K
Reported property: solubility (mole fraction)
Just the number, please, no unit attached.

Exam item: Look up and state reported solubility (mole fraction) for COc1ccc(CN2CCNCC2)c(OC)c1OC.Cl.Cl
Marked response: 0.00053

====

- Assay conditions: in n-butanol, 303.15 K
Reported property: solubility (mole fraction)

Exam item: Look up and state reported solubility (mole fraction) for COc1ccc(CN2CCNCC2)c(OC)c1OC.Cl.Cl
Marked response: 0.000263

====

- Assay conditions: in ethanol, 313.15 K
Reported property: solubility (mole fraction)
Just the number, please, no unit attached.

Exam item: Look up and state reported solubility (mole fraction) for COc1ccc(CN2CCNCC2)c(OC)c1OC.Cl.Cl
Marked response: 0.0012

====

- Assay conditions: in toluene, 283.15 K
Reported property: solubility (mole fraction)
Just the number, please, no unit attached.

Exam item: Look up and state reported solubility (mole fraction) for COc1ccc(CN2CCNCC2)c(OC)c1OC.Cl.Cl
Marked response: 8.19e-07

====

- Assay conditions: in ethanol, 298.15 K
Reported property: solubility (mole fraction)
Just the number, please, no unit attached.

Exam item: Look up and state reported solubility (mole fraction) for COc1ccc(CN2CCNCC2)c(OC)c1OC.Cl.Cl
Marked response: 0.00089

====

- Assay conditions: in n-butanol, 278.15 K
Reported property: solubility (mole fraction)
Just the number, please, no unit attached.

Exam item: Look up and state reported solubility (mole fraction) for COc1ccc(CN2CCNCC2)c(OC)c1OC.Cl.Cl
Marked response: 0.000131

====

- Assay conditions: in toluene, 298.15 K
Reported property: solubility (mole fraction)

Exam item: Look up and state reported solubility (mole fraction) for COc1ccc(CN2CCNCC2)c(OC)c1OC.Cl.Cl
Marked response: 1.33e-06

====

- Assay conditions: in isopropanol, 323.15 K
Reported property: solubility (mole fraction)

Exam item: Look up and state reported solubility (mole fraction) for COc1ccc(CN2CCNCC2)c(OC)c1OC.Cl.Cl
Marked response: 0.000333

====

- Assay conditions: in n-propanol, 288.15 K
Reported property: solubility (mole fraction)

Exam item: Look up and state reported solubility (mole fraction) for COc1ccc(CN2CCNCC2)c(OC)c1OC.Cl.Cl
Marked response: 0.000246

====

- Assay conditions: in ethyl acetate, 298.15 K
Reported property: solubility (mole fraction)
Just the number, please, no unit attached.

Exam item: Look up and state reported solubility (mole fraction) for COc1ccc(CN2CCNCC2)c(OC)c1OC.Cl.Cl
Marked response: 0.00234

====

- Assay conditions: in methanol, 308.15 K
Reported property: solubility (mole fraction)
Just the number, please, no unit attached.

Exam item: Look up and state reported solubility (mole fraction) for COc1ccc(CN2CCNCC2)c(OC)c1OC.Cl.Cl
Marked response: 0.00777

====

- Assay conditions: in n-butanol, 288.15 K
Reported property: solubility (mole fraction)
Just the number, please, no unit attached.

Exam item: Look up and state reported solubility (mole fraction) for COc1ccc(CN2CCNCC2)c(OC)c1OC.Cl.Cl
Marked response: 0.000177

====

- Assay conditions: in 2-butanone, 308.15 K
Reported property: solubility (mole fraction)
Just the number, please, no unit attached.

Exam item: Look up and state reported solubility (mole fraction) for COc1ccc(CN2CCNCC2)c(OC)c1OC.Cl.Cl
Marked response: 9.85e-06

====

- Assay conditions: in n-propanol, 313.15 K
Reported property: solubility (mole fraction)
Just the number, please, no unit attached.

Exam item: Look up and state reported solubility (mole fraction) for COc1ccc(CN2CCNCC2)c(OC)c1OC.Cl.Cl
Marked response: 0.000464

====

- Assay conditions: in toluene, 303.15 K
Reported property: solubility (mole fraction)

Exam item: Look up and state reported solubility (mole fraction) for COc1ccc(CN2CCNCC2)c(OC)c1OC.Cl.Cl
Marked response: 1.57e-06

====

- Assay conditions: in acetone, 313.15 K
Reported property: solubility (mole fraction)
Just the number, please, no unit attached.

Exam item: Look up and state reported solubility (mole fraction) for COc1ccc(CN2CCNCC2)c(OC)c1OC.Cl.Cl
Marked response: 1.11e-05

====

- Assay conditions: in methanol, 323.15 K
Reported property: solubility (mole fraction)
Just the number, please, no unit attached.

Exam item: Look up and state reported solubility (mole fraction) for COc1ccc(CN2CCNCC2)c(OC)c1OC.Cl.Cl
Marked response: 0.0111

====

- Assay conditions: in isopropanol, 283.15 K
Reported property: solubility (mole fraction)
Just the number, please, no unit attached.

Exam item: Look up and state reported solubility (mole fraction) for COc1ccc(CN2CCNCC2)c(OC)c1OC.Cl.Cl
Marked response: 9.15e-05

====

- Assay conditions: in n-propanol, 308.15 K
Reported property: solubility (mole fraction)
Just the number, please, no unit attached.

Exam item: Look up and state reported solubility (mole fraction) for COc1ccc(CN2CCNCC2)c(OC)c1OC.Cl.Cl
Marked response: 0.000413

====

- Assay conditions: in acetonitrile, 323.15 K
Reported property: solubility (mole fraction)
Just the number, please, no unit attached.

Exam item: Look up and state reported solubility (mole fraction) for COc1ccc(CN2CCNCC2)c(OC)c1OC.Cl.Cl
Marked response: 2.58e-05

====

- Assay conditions: in 2-butanone, 303.15 K
Reported property: solubility (mole fraction)

Exam item: Look up and state reported solubility (mole fraction) for COc1ccc(CN2CCNCC2)c(OC)c1OC.Cl.Cl
Marked response: 9.05e-06

====

- Assay conditions: in toluene, 323.15 K
Reported property: solubility (mole fraction)

Exam item: Look up and state reported solubility (mole fraction) for COc1ccc(CN2CCNCC2)c(OC)c1OC.Cl.Cl
Marked response: 2.76e-06

====

- Assay conditions: in 2-butanone, 298.15 K
Reported property: solubility (mole fraction)
Just the number, please, no unit attached.

Exam item: Look up and state reported solubility (mole fraction) for COc1ccc(CN2CCNCC2)c(OC)c1OC.Cl.Cl
Marked response: 8.35e-06

====

- Assay conditions: in 2-butanone, 278.15 K
Reported property: solubility (mole fraction)
Just the number, please, no unit attached.

Exam item: Look up and state reported solubility (mole fraction) for COc1ccc(CN2CCNCC2)c(OC)c1OC.Cl.Cl
Marked response: 6.02e-06

====

- Assay conditions: in n-propanol, 318.15 K
Reported property: solubility (mole fraction)
Just the number, please, no unit attached.

Exam item: Look up and state reported solubility (mole fraction) for COc1ccc(CN2CCNCC2)c(OC)c1OC.Cl.Cl
Marked response: 0.000521

====

- Assay conditions: in ethanol, 308.15 K
Reported property: solubility (mole fraction)
Just the number, please, no unit attached.

Exam item: Look up and state reported solubility (mole fraction) for COc1ccc(CN2CCNCC2)c(OC)c1OC.Cl.Cl
Marked response: 0.00109

====

- Assay conditions: in DMF, 288.15 K
Reported property: solubility (mole fraction)

Exam item: Look up and state reported solubility (mole fraction) for COc1ccc(CN2CCNCC2)c(OC)c1OC.Cl.Cl
Marked response: 0.000609

Where do the numbers come from? From BigSolDB 2.1.
